In this section, each of the compounds is paired with its reported Solubility.
experiment: Solubility experiment; type: physicochemical; conditions: Acetone; calculated for crystal form I
Give the quantity in µg/mL, number only.

{"compound": "CCN1CCN(Cc2ccc(Nc3ncc4c(n3)-c3c(nc(C5CC5)n3C(C)C)C4)nc2)CC1 [Crystal form K-1]", "Solubility / µg/mL": 11470}

Now consider the entry below.
Q: Item CCN1CCN(Cc2ccc(Nc3ncc4c(n3)-c3c(nc(C5CC5)n3C(C)C)C4)nc2)CC1 [Crystal form A] has what recorded Solubility?
Ans: 230

* * *

test: Solubility experiment; format: physicochemical; settings: Acetonitrile; calculated for crystal form I
result.type: Solubility (µg/mL)
Please respond with the number in µg/mL and leave the unit unwritten.

{"compound": "CCN1CCN(Cc2ccc(Nc3ncc4c(n3)-c3c(nc(C5CC5)n3C(C)C)C4)nc2)CC1 [Crystal form B-1]", "result.type": "Solubility", "number": 280}

Consider now this further compound.
Q: Dear colleague, I am looking for the recorded Solubility of the following compound: CCN1CCN(Cc2ccc(Nc3ncc4c(n3)-c3c(nc(C5CC5)n3C(C)C)C4)nc2)CC1 [Crystal form A]
Ans: 220
